Molecular target: α2β4-nAChR (Homo sapiens, UniProt P30926+Q15822)
Experiment: two-electrode voltage clamp, Xenopus oocytes, peak inward current
measured-attribute: pEC50
Conceptually, pEC50 converts a concentration in mol/L into minus its log10.

Query block: Look at this molecule and give its reported pEC50. CN1CCC[C@H]1c1cccnc1 [nicotine]
Result block: 5.07

---

Biological target: α2β4β3-nAChR (Homo sapiens, UniProt P30926+Q15822)
Sequence (Q15822 27-529): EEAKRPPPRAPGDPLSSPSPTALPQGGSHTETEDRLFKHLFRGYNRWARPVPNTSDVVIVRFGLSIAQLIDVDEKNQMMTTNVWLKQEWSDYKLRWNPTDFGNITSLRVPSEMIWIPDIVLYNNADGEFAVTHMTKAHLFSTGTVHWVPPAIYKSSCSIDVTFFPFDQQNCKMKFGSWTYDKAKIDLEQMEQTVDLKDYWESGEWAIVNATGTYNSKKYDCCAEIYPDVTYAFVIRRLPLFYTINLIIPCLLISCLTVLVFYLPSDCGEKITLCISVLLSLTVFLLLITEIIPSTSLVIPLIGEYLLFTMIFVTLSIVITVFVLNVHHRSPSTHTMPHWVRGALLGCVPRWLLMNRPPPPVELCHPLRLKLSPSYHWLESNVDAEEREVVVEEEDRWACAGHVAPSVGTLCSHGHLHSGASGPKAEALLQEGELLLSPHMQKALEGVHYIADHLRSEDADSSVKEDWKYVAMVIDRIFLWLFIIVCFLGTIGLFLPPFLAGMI
Sequence (P30926 22-498): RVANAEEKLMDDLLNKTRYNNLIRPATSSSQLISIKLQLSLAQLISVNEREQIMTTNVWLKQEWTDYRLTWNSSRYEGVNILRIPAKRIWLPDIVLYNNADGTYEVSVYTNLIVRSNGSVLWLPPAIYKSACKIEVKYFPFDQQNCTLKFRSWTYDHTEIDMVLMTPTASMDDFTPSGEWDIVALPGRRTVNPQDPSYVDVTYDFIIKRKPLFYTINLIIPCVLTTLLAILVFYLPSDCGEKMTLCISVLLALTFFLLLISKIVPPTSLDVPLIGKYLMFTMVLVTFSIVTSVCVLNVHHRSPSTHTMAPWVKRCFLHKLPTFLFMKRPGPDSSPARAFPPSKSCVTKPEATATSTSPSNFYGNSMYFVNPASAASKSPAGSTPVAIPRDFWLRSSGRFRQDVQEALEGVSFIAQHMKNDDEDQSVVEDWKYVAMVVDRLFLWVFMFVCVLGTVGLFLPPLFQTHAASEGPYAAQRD
Sequence (Q05901 22-458 partner): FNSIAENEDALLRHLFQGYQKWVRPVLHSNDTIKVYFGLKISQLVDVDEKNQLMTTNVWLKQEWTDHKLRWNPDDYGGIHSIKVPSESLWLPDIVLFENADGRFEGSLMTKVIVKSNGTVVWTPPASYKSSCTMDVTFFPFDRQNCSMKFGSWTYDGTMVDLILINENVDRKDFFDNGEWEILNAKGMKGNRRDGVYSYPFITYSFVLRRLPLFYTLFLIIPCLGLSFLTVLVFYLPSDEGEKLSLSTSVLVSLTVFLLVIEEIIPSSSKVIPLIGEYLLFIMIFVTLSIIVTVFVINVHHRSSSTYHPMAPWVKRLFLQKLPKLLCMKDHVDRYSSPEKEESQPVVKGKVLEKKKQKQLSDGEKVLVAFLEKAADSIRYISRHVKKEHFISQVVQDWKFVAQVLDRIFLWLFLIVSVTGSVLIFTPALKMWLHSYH
Assay: two-electrode voltage clamp, Xenopus oocytes, peak inward current
Assay type: cell-based
measured-attribute: EC50 (µM)
Just the number please, in µM, no unit attached.

Query block: State its EC50 on α2β4β3-nAChR (Homo sapiens, UniProt P30926+Q15822): CN1CCC[C@H]1c1cccnc1 [nicotine]
Result block: 7.3
